System: SF-268
protocol: Cytotoxicity against human SF-268 cells assessed as reduction in cell growth incubated for 48 hrs by SRB assay
Assay type: functional, cell-based
runParameters: SF-268, 48 h
IC50 overview
Output spec: scalar in nM, unitless text.

Here is how some molecules turned out for IC50.
CN1C(=O)[C@]23CC4=CC=C[C@H](O)[C@H]4N2C(=O)[C@@]1(CO)SS3 [GLIOTOXIN] | 240
CS[C@]1(CO)C(=O)n2c(cc3ccccc32)C(=O)N1C | 35700
CS[C@]1(CO)C(=O)N2[C@H]3C(=CC=C[C@@H]3OC(C)=O)C[C@@]2(SC)C(=O)N1C | 34000
CC(=O)O[C@H]1C=CC=C2C[C@]34SS[C@](CO)(C(=O)N3[C@@H]21)N(C)C4=O | 250
C=c1c(=O)n2c(cc3ccccc32)c(=O)n1C | 3300

Lab note: next molecule to report on.
Record summary for CN1C(=O)[C@]23Cc4ccccc4N2C(=O)[C@@]1(CO)SS3 : reported IC50 = 1350
